Overview of reported pIC50 across a group of molecules:
- test.system: UniProt:P22303
pIC50: −log10 of the molar value.
test.readout: pIC50

>>> df
                                   molecule  value_reported
0  c1cc2cc3c(cc2c([C@H]2Oc4ccc5c(c4O2)OCO5)n1)OCO3            4.11
1  CO[C@H]1O[C@](C)(c2nccc3cc4c(cc23)OCO4)c2ccc3c(c21)OCO3          < 4.00
2  COc1ccc2c(c1O)CN1CCc3cc4c(cc3C1C2)OCO4 (stereo not given)          < 4.00
3  C[C@]1(c2nccc3cc4c(cc23)OCO4)Oc2ccc3c(c2O1)OCO3          < 4.00
4  CN1CCc2cc3c(cc2[C@@]12C(=O)c1ccc4c(c1[C@@H]2O)OCO4)OCO3          < 4.00

----------
pIC50: −log10 of the molar value.
Quick record of pIC50 values for Acetylcholinesterase (Homo sapiens, UniProt P22303).
test.readout: pIC50

>>> print(df.to_string())
                                    molecule  test_readout  value_reported
 0  C[C@@]1(c2nccc3cc4c(cc23)OCO4)Oc2ccc3c(c2O1)OCO3         pIC50          < 4.00
 1  c1cc2cc3c(cc2c([C@@H]2Oc4ccc5c(c4O2)OCO5)n1)OCO3         pIC50          < 4.00
 2  COC1c2c(ccc3c2OCO3)-c2ccc3cc4c(cc3c2N1C)OCO4 (configuration not stated)         pIC50            4.01
 3  CN1CCc2cc3c(cc2[C@H]1[C@H]1OC(=O)c2c1ccc1c2OCO1)OCO3         pIC50          < 4.00
 4  CN1CCc2cc3c(cc2C12OCc1c(ccc4c1OCO4)C2=O)OCO3 (racemic)         pIC50          < 4.00
 5  CC1(c2nccc3cc4c(cc23)OCO4)OC(O)c2c1ccc1c2OCO1 (single isomer, unassigned; epimer 1)         pIC50            4.91
 6  CO[C@@H]1O[C@](C)(c2nccc3cc4c(cc23)OCO4)c2ccc3c(c21)OCO3         pIC50          < 4.00
 7  CN1CCc2cc3c(cc2[C@H]1[C@H]1O[C@@H](O)c2c1ccc1c2OCO1)OCO3         pIC50          < 4.00
 8  C[C@H](c1ccc2c(c1O)OCO2)c1nccc2cc3c(cc12)OCO3         pIC50          < 4.00
 9                  CN1CCc2cc3c(cc2C1=O)OCO3         pIC50          < 4.00
10  CN1CCc2cc3c(cc2C(=O)Cc2ccc4c(c2C1)OCO4)OCO3         pIC50          < 4.00
11  CO[C@@H]1O[C@H]([C@@H]2c3cc4c(cc3CCN2C)OCO4)c2ccc3c(c21)OCO3         pIC50          < 4.00
12  CO[C@@H]1O[C@@](C)(c2nccc3cc4c(cc23)OCO4)c2ccc3c(c21)OCO3         pIC50          < 4.00
13  CN1Cc2c(ccc3c2OCO3)-c2ccc3cc4c(cc3c21)OCO4 [DIHYDROSANGUINARINE]         pIC50          < 4.00
14  CC1(c2nccc3cc4c(cc23)OCO4)OC(O)c2c1ccc1c2OCO1 (single isomer, unassigned)         pIC50            4.95
15  CO[C@H]1O[C@@](C)(c2nccc3cc4c(cc23)OCO4)c2ccc3c(c21)OCO3         pIC50            4.55
16  C[C@@H](c1ccc2c(c1O)OCO2)c1nccc2cc3c(cc12)OCO3         pIC50          < 4.00
